B1: KCNA1 (parent)
chain: LKASMRELGLLIFFLFIGVILFSS

- Variants of: B1
- TEST_METHOD_NOTES: protein stability index of a GFP-peptide fusion (GPS, HEK-293T) (PSI 1-6); higher = more stable;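 note: lentivirally expressed fusions sorted by FACS into six bins by GFP to DsRed ratio, PSI derived from sequencing read proportions per bin multiplied by bin number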
- CONDITION_LABEL: c terminus: a fixed tail appended
Some variants, each annotated with its measured protein stability index.
METRIC_NAME: protein stability index

VARIANT_KEY	RESULT_NUMBER
S24H	2
S4H	2.07
E7D	2.72
S4K	1.62
G9S	1.98
S23H	2.15
V19C	1.65
L1I	2.29
S4V	2.65
G18V	3.15
K2V	3.35
L11M	1.73
I17S	2.3
S4M	1.97
F14K	2.65
G18Q	2.75
F22N	3.37
G9Q	4.69
F13N	3.41
F22V	1.8
S24Y	2.06
F16A	2.14
S4C	2.87
I17Q	2.82
S24W	1.84
I17D	2.29
G9P	3.05
L21R	3.21
R6Q	2.28
L11V	1.61
L1G	3
F14L	2.98
S23Q	2.13
V19K	4.72
I17H	2.85
L1Y	2.76
I17C	2.56
S4R	2.09
F14W	3.78
E7Q	1.68
A3D	2.46
S23M	2.35
I12C	2.52
L10W	2.58
F16H	3.79
F22Y	1.93
M5R	1.76
I20Q	2.9
I17M	3.35
G18C	3.63
E7P	2.28
L21T	2.68
F16E	3.14
S4I	1.69
G9D	3.82
L15S	2.67
E7I	2.77
F22P	2.64
I12H	3.35
E7L	2.16
I12L	2.86
M5V	2.79
K2S	2.19
G18W	2.21
F22Q	3.69
V19F	1.99
I17G	2.88
L10P	2.75
L15R	2.01
M5W	1.78
L21M	2.32
I12A	1.87
L15A	2.44
L10M	3.58
F16W	2.38
S24K	3.45
F22S	2.95
S24I	1.23
L15C	2.37
F14Y	3.01
E7A	2.13
F22T	3.72
I17F	2.79
G9E	4.03
L15N	3.33
L11T	4.58
E7Y	1.74
S23A	2.19
S4Y	2.17
I17N	4.03
F13A	1.57
